Experiment: Plasma pharmacokinetics of ESK-440 and metabolite CEP-38901
Type: in vivo, human
Details: human, plasma, oral, 25 mg/day, AUC0-t, Day 1, 25 mg/day (N = 3)
quantity: AUC(0-t) (ng·h/mL)

- structureNotation: "CNC(=O)c1ccccc1Nc1nc(Nc2ccc3c(c2OC)CCC[C@H](N2CCN(CCO)CC2)C3)ncc1Cl"
  unitLabel: "ng·h/mL"
  measured: 223

---

Assay: Plasma pharmacokinetics of ESK-440 and metabolite CEP-38901
Type: in vivo, human
Conditions: human, plasma, oral

- structureNotation: "CNC(=O)c1ccccc1Nc1nc(Nc2ccc3c(c2OC)CCC[C@H](N2CCN(CCO)CC2)C3)ncc1Cl"
  half-life: "9.4 to 20.8 h"

All figures here come from paper PMC11847724.
